System: Aphis craccivoral
testProtocol: Insecticidal activities to aphids, immersion method
Assay type: in vivo
testSettings: in vivo
reportedEndpoint: Aphis craccivoral Mortality (%) 500 ppm

compound	reportedEndpoint	measurement
CCc1ccc(C=C(C2=NCCN2CC2CCOC2)[N+](=O)[O-])o1 (stereo not drawn)	Aphis craccivoral Mortality (%) 500 ppm	76
CCN(Cc1ccc(Cl)nc1)C(=NC)C(=Cc1ccc(Br)o1)[N+](=O)[O-]	Aphis craccivoral Mortality (%) 500 ppm	100
CC(c1ccc(Cl)nc1)N1CCN=C1C(=Cc1ccc(Br)o1)[N+](=O)[O-] (racemic)	Aphis craccivoral Mortality (%) 500 ppm	100
CC(c1ccc(Cl)nc1)N1CCN=C1C(=Cc1ccc[nH]1)[N+](=O)[O-] (racemic)	Aphis craccivoral Mortality (%) 500 ppm	100
C[N+]1=C(C(=Cc2ccsc2)[N+](=O)[O-])N(Cc2ccc(Cl)nc2)CC1.[Cl-]	Aphis craccivoral Mortality (%) 500 ppm	90
CCN=C(C(=Cc1ccc(Cl)o1)[N+](=O)[O-])N(CC)Cc1ccc(Cl)nc1	Aphis craccivoral Mortality (%) 500 ppm	97
N#CC(=Cc1ccoc1)C1=NCCN1Cc1ccc(Cl)nc1	Aphis craccivoral Mortality (%) 500 ppm	100
Cn1cccc1C=C(C1=NCCN1Cc1ccc(Cl)nc1)[N+](=O)[O-]	Aphis craccivoral Mortality (%) 500 ppm	100
CCN(Cc1ccc(Cl)nc1)C(=NC)C(=C(C)c1ccc(Cl)s1)[N+](=O)[O-]	Aphis craccivoral Mortality (%) 500 ppm	100
CC(c1ccc(Cl)nc1)N1CCN=C1C(=Cc1ccc(Cl)o1)[N+](=O)[O-] (racemic)	Aphis craccivoral Mortality (%) 500 ppm	100
O=[N+]([O-])C(=Cc1oc(Br)cc1Br)C1=NCCN1Cc1ccc(Cl)nc1	Aphis craccivoral Mortality (%) 500 ppm	100
O=[N+]([O-])C(=Cc1oc(Cl)cc1Cl)C1=NCCN1Cc1ccc(Cl)nc1	Aphis craccivoral Mortality (%) 500 ppm	100
CC(=C(C1=NCCN1Cc1ccc(Cl)nc1)[N+](=O)[O-])c1ccoc1	Aphis craccivoral Mortality (%) 500 ppm	56
O=[N+]([O-])C(=Cc1ccoc1)C1=NCCN1CC1CCOC1 (stereo not drawn)	Aphis craccivoral Mortality (%) 500 ppm	80
CCN(Cc1ccc(Cl)nc1)C(=NC)C(=Cc1ccco1)[N+](=O)[O-] [Compound 179]	Aphis craccivoral Mortality (%) 500 ppm	100
CC(c1ccc(Cl)nc1)N1CCN=C1C(=Cc1ccoc1)[N+](=O)[O-] (racemic)	Aphis craccivoral Mortality (%) 500 ppm	100
C[N+]1=C(C(=Cc2sc(Br)cc2Br)[N+](=O)[O-])N(Cc2ccc(Cl)nc2)CC1.[Cl-]	Aphis craccivoral Mortality (%) 500 ppm	100
O=[N+]([O-])C(=Cc1cccnc1)C1=NCCN1Cc1ccc(Cl)nc1	Aphis craccivoral Mortality (%) 500 ppm	97
O=[N+]([O-])C(=Cc1cc(Cl)c(Cl)s1)C1=NCCN1Cc1ccc(Cl)nc1	Aphis craccivoral Mortality (%) 500 ppm	100
O=[N+]([O-])C(=Cc1ccc(Br)o1)C1=NCCN1Cc1ccc(Cl)nc1	Aphis craccivoral Mortality (%) 500 ppm	100
CCN(Cc1ccc(Cl)nc1)C(=NC)C(=C(C)c1ccoc1)[N+](=O)[O-]	Aphis craccivoral Mortality (%) 500 ppm	100
O=[N+]([O-])C(=Cc1ccc(F)nc1)C1=NCCN1Cc1ccc(Cl)nc1	Aphis craccivoral Mortality (%) 500 ppm	89
CCN=C(C(=Cc1ccc([N+](=O)[O-])s1)[N+](=O)[O-])N(C)Cc1ccc(Cl)nc1	Aphis craccivoral Mortality (%) 500 ppm	86
C[N+]1=C(C(=Cc2ccc(CO)s2)[N+](=O)[O-])N(Cc2ccc(Cl)nc2)CC1.[Cl-]	Aphis craccivoral Mortality (%) 500 ppm	100
CC(c1ccc(Cl)nc1)N1CCN=C1C(=Cc1ccc(Cl)s1)[N+](=O)[O-] (racemic)	Aphis craccivoral Mortality (%) 500 ppm	100
Cc1ccc(C=C(C2=[N+](C)CCN2Cc2ccc(Cl)nc2)[N+](=O)[O-])o1.[Cl-]	Aphis craccivoral Mortality (%) 500 ppm	100
CCN(C(=NC)C(=Cc1ccc[nH]1)[N+](=O)[O-])C(C)c1ccc(Cl)nc1 (stereo not drawn)	Aphis craccivoral Mortality (%) 500 ppm	73
